Would you mind telling me the reported GI50 of each entry?
test system: KCL22 B10 (Y253H, 50%); experiment: Cytotoxicity assay (resazurin) on KCL22 subclone B10; format: cell-based; conditions: Homo sapiens, KCL-22, read-out: GI50 KCL22 B10 Y253H (50%), 72 h
Express your answer in µM, writing the number without its unit.

**Query** Which GI50 value is on record for CN1CCN(c2ccc(Nc3nc(Nc4ccc(F)c(F)c4)c4ncn(CC5CC5)c4n3)cc2)CC1 [III, reference compound] ?
**Result** 3.4

**Query** Which GI50 value is on record for CC(C)CCn1cnc2c(Nc3ccc(F)c(F)c3)nc(Nc3ccc(N4CCN(CCO)CC4)cc3)nc21 [Compound 11f] ?
**Result** 7

**Query** Which GI50 value is on record for CCCCCCn1cnc2c(Nc3cccc(F)c3)nc(Nc3ccc(N4CCN(CCO)CC4)cc3)nc21 [Compound 11h] ?
**Result** 5.9

**Query** Which GI50 value is on record for CN1CCN(c2ccc(Nc3nc(Nc4cccc(F)c4)c4ncn(CC5CC5)c4n3)cc2)CC1 [II, reference compound] ?
**Result** 8.8

**Query** Which GI50 value is on record for CC(C)CCn1cnc2c(Nc3cccc(F)c3)nc(Nc3ccc(N4CCN(CCO)CC4)cc3)nc21 [Compound 11e] ?
**Result** 6.9

###

molecular target: recombinant Abl1 kinase (Homo sapiens); construct: made in house; experiment: Recombinant Abl1 kinase inhibition assay ([γ-33P]ATP, peptide substrate); assay type: biochemical; details: recombinant Abl1, 1 µM ATP; at least three independent experiments; read-out: IC50 Abl
Would you mind telling me the reported IC50 of each entry?
Express your answer in µM, writing the number without its unit.

**Query** Which IC50 value is on record for CCCCCCn1cnc2c(Nc3ccccc3)nc(Nc3ccc(N4CCN(CCO)CC4)cc3)nc21 [Compound 11g] ?
**Result** 0.834

**Query** Which IC50 value is on record for OCCN1CCN(c2ccc(Nc3nc(Nc4cccc(F)c4)c4ncn(CC5CC5)c4n3)cc2)CC1 [Compound 11b] ?
**Result** 0.015

**Query** Which IC50 value is on record for CN1CCN(c2ccc(Nc3nc(N)c4ncn(CC5CC5)c4n3)cc2)CC1 [Compound 13a] ?
**Result** 3.96

**Query** Which IC50 value is on record for CN1CCN(c2ccc(Nc3nc(NCc4ccccc4)c4ncn(CC5CC5)c4n3)cc2)CC1 [Compound 13c] ?
**Result** 0.845

**Query** Which IC50 value is on record for CC(C)CCn1cnc2c(Nc3ccc(F)c(F)c3)nc(Nc3ccc(N4CCN(CCO)CC4)cc3)nc21 [Compound 11f] ?
**Result** 1.76

**Query** Which IC50 value is on record for CN1CCN(c2ccc(Nc3nc(NC4CCCCC4)c4ncn(CC5CC5)c4n3)cc2)CC1 [Compound 13b] ?
**Result** 11.1

**Query** Which IC50 value is on record for OCCN1CCN(c2ccc(Nc3nc(Nc4ccccc4)c4ncn(CC5CC5)c4n3)cc2)CC1 [Compound 11a] ?
**Result** 0.037

**Query** Which IC50 value is on record for CN1CCN(Cc2ccc(Nc3nc(Nc4cccc(F)c4)c4ncn(CC5CC5)c4n3)cc2)CC1 ?
**Result** 0.18

**Query** Which IC50 value is on record for CN1CCN(Cc2ccc(Nc3nc(Nc4ccc(F)c(F)c4)c4ncn(CC5CC5)c4n3)cc2)CC1 ?
**Result** 0.225

**Query** Which IC50 value is on record for CC(C)CCn1cnc2c(Nc3ccccc3)nc(Nc3ccc(N4CCN(CCO)CC4)cc3)nc21 [Compound 11d] ?
**Result** 1.24

**Query** Which IC50 value is on record for CC(C)CCn1cnc2c(Nc3cccc(F)c3)nc(Nc3ccc(N4CCN(CCO)CC4)cc3)nc21 [Compound 11e] ?
**Result** 0.131

**Query** Which IC50 value is on record for OCCN1CCN(c2ccc(Nc3nc(Nc4ccc(F)c(F)c4)c4ncn(CC5CC5)c4n3)cc2)CC1 [Compound 11c] ?
**Result** 0.02

**Query** Which IC50 value is on record for CCCCCCn1cnc2c(Nc3cccc(F)c3)nc(Nc3ccc(N4CCN(CCO)CC4)cc3)nc21 [Compound 11h] ?
**Result** 0.674

**Query** Which IC50 value is on record for CCCCCCn1cnc2c(Nc3ccc(F)c(F)c3)nc(Nc3ccc(N4CCN(CCO)CC4)cc3)nc21 [Compound 11i] ?
**Result** 1.68

###

attributeMeasured: melting point

**Query** Which melting point value is on record for CN1CCN(c2ccc(Nc3nc(N)c4ncn(CC5CC5)c4n3)cc2)CC1 [Compound 13a] ?
**Result** 133 to 134 °C

**Query** Which melting point value is on record for CN1CCN(c2ccc(Nc3nc(NCc4ccccc4)c4ncn(CC5CC5)c4n3)cc2)CC1 [Compound 13c] ?
**Result** 152 to 154 °C

**Query** Which melting point value is on record for CCCCCCn1cnc2c(Nc3ccc(F)c(F)c3)nc(Nc3ccc(N4CCN(CCO)CC4)cc3)nc21 [Compound 11i] ?
**Result** 135.1 to 137.1 °C

**Query** Which melting point value is on record for CC(C)CCn1cnc2c(Nc3ccccc3)nc(Nc3ccc(N4CCN(CCO)CC4)cc3)nc21 [Compound 11d] ?
**Result** 88.6 to 89.2 °C

###

tested on: KBM5; test: Cytotoxicity assay (resazurin) on KBM5; type: cell-based; details: Homo sapiens, KBM5; 72 h, resazurin assay; read-out: GI50 KBM5
attributeMeasured: GI50 (µM)
Express your answer in µM, writing the number without its unit.

**Query** Which GI50 value is on record for CC(C)CCn1cnc2c(Nc3ccccc3)nc(Nc3ccc(N4CCN(CCO)CC4)cc3)nc21 [Compound 11d] ?
**Result** 5.6

**Query** Which GI50 value is on record for CN1CCN(Cc2ccc(Nc3nc(Nc4cccc(F)c4)c4ncn(CC5CC5)c4n3)cc2)CC1 [Compound 7a] ?
**Result** 4.4

**Query** Which GI50 value is on record for CCCCCCn1cnc2c(Nc3cccc(F)c3)nc(Nc3ccc(N4CCN(CCO)CC4)cc3)nc21 [Compound 11h] ?
**Result** 5.8

**Query** Which GI50 value is on record for OCCN1CCN(c2ccc(Nc3nc(Nc4cccc(F)c4)c4ncn(CC5CC5)c4n3)cc2)CC1 [Compound 11b] ?
**Result** 1.3

**Query** Which GI50 value is on record for CCCCCCn1cnc2c(Nc3ccc(F)c(F)c3)nc(Nc3ccc(N4CCN(CCO)CC4)cc3)nc21 [Compound 11i] ?
**Result** 5.6

**Query** Which GI50 value is on record for CCCCCCn1cnc2c(Nc3ccccc3)nc(Nc3ccc(N4CCN(CCO)CC4)cc3)nc21 [Compound 11g] ?
**Result** 5.4

**Query** Which GI50 value is on record for OCCN1CCN(c2ccc(Nc3nc(Nc4ccc(F)c(F)c4)c4ncn(CC5CC5)c4n3)cc2)CC1 [Compound 11c] ?
**Result** 2.1

**Query** Which GI50 value is on record for OCCN1CCN(c2ccc(Nc3nc(Nc4ccccc4)c4ncn(CC5CC5)c4n3)cc2)CC1 [Compound 11a] ?
**Result** 3

**Query** Which GI50 value is on record for Cc1cn(-c2cc(NC(=O)c3ccc(C)c(Nc4nccc(-c5cccnc5)n4)c3)cc(C(F)(F)F)c2)cn1 [Nilotinib, reference compound] ?
**Result** 0.019

**Query** Which GI50 value is on record for CC(C)CCn1cnc2c(Nc3cccc(F)c3)nc(Nc3ccc(N4CCN(CCO)CC4)cc3)nc21 [Compound 11e] ?
**Result** 5

**Query** Which GI50 value is on record for CN1CCN(Cc2ccc(Nc3nc(Nc4ccc(F)c(F)c4)c4ncn(CC5CC5)c4n3)cc2)CC1 [Compound 7b] ?
**Result** 4.2

**Query** Which GI50 value is on record for CC(C)CCn1cnc2c(Nc3ccc(F)c(F)c3)nc(Nc3ccc(N4CCN(CCO)CC4)cc3)nc21 [Compound 11f] ?
**Result** 5.2

###

target: recombinant Abl1 kinase (Homo sapiens, UniProt P00519); construct: made in house; test: Recombinant Abl1 kinase inhibition assay ([γ-33P]ATP, peptide substrate); assay type: biochemical; settings: from the IC50 of Table S1; read-out: pIC50 (Table S1) (converted)
Sequence (P00519 whole entry): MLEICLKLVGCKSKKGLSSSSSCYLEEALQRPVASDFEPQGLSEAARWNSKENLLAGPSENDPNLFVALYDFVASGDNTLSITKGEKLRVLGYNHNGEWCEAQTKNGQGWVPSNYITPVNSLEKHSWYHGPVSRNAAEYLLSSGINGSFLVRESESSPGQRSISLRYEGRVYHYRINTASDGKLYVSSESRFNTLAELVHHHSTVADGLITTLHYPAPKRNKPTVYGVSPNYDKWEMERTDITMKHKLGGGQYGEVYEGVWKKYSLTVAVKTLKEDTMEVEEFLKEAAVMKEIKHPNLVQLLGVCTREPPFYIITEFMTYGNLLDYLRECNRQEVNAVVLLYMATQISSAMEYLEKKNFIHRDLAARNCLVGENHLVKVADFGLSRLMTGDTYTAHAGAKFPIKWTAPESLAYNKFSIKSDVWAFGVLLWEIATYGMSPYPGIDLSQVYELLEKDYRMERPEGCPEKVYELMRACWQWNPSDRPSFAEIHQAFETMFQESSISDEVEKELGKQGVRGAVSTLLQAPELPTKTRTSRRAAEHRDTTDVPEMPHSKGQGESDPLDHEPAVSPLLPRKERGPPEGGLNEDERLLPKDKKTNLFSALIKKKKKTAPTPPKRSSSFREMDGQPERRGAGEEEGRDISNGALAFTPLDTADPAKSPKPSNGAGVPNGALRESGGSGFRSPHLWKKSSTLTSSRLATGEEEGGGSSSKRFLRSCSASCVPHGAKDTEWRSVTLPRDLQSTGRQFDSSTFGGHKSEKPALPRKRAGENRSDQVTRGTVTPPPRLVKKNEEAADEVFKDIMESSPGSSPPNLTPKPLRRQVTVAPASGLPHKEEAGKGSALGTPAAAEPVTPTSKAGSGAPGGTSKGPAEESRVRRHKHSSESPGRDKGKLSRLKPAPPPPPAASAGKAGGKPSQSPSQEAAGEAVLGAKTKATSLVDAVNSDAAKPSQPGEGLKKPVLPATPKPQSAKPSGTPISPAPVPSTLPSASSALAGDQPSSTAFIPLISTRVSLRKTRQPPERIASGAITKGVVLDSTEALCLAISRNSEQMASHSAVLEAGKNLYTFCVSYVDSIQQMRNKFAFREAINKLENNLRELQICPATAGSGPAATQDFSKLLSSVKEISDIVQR
attributeMeasured: IC50 (nM)
Express your answer in nM, writing the number without its unit.

**Query** Which IC50 value is on record for CN1CCN(Cc2ccc(Nc3nc(Nc4ccc(F)c(F)c4)c4ncn(CC5CC5)c4n3)cc2)CC1 ?
**Result** 220

**Query** Which IC50 value is on record for CN1CCN(c2ccc(Nc3nc(N)c4ncn(CC5CC5)c4n3)cc2)CC1 [Compound 13a] ?
**Result** 3950

**Query** Which IC50 value is on record for CN1CCN(Cc2ccc(Nc3nc(Nc4cccc(F)c4)c4ncn(CC5CC5)c4n3)cc2)CC1 ?
**Result** 180

**Query** Which IC50 value is on record for CC(C)CCn1cnc2c(Nc3ccc(F)c(F)c3)nc(Nc3ccc(N4CCN(CCO)CC4)cc3)nc21 [Compound 11f] ?
**Result** 1760

**Query** Which IC50 value is on record for CN1CCN(c2ccc(Nc3nc(NC4CCCCC4)c4ncn(CC5CC5)c4n3)cc2)CC1 [Compound 13b] ?
**Result** 11000

**Query** Which IC50 value is on record for OCCN1CCN(c2ccc(Nc3nc(Nc4ccc(F)c(F)c4)c4ncn(CC5CC5)c4n3)cc2)CC1 [Compound 11c] ?
**Result** 19

**Query** Which IC50 value is on record for OCCN1CCN(c2ccc(Nc3nc(Nc4cccc(F)c4)c4ncn(CC5CC5)c4n3)cc2)CC1 [Compound 11b] ?
**Result** 14

**Query** Which IC50 value is on record for CCCCCCn1cnc2c(Nc3ccccc3)nc(Nc3ccc(N4CCN(CCO)CC4)cc3)nc21 [Compound 11g] ?
**Result** 830
